Test system: Candida tropicalis
Assay: Antifungal activity against Candida tropicalis ATCC 200956 by CLSI standard M27 broth microdilution method
Format: functional
What MIC was measured for each of the following?

For orientation, consider the following solved cases.
INSERT INTO assay_data (compound, recorded_metric, result) VALUES
  ('C[C@@H]1OC(c2cc(Cl)c3ccccc3c2O)=N[C@@H]1C(=O)OC/C=C/c1ccccc1', 'MIC', '≤ 0.03 µg/mL'),
  ('C[C@H]1OC(c2cc(I)ccc2O)=N[C@H]1C(=O)OCc1ccccc1', 'MIC', '≤ 0.03 µg/mL'),
  ('COc1cccc(O)c1C1=N[C@@H](C(=O)OCc2ccccc2)[C@@H](C)O1', 'MIC', '0.12 µg/mL'),
  ('C[C@H]1OC(c2cc(F)ccc2O)=N[C@H]1C(=O)OCc1ccccc1', 'MIC', '≤ 0.03 µg/mL'),
  ('C[C@@H]1OC(c2cc(Cl)c3ccccc3c2O)=N[C@@H]1C(=O)OC[C@H]1COC(C)(C)O1', 'MIC', '≤ 0.03 µg/mL');

Give measured MIC for every item shown.
1. C[C@H]1OC(c2ccc(Br)cc2O)=N[C@H]1C(=O)OCc1ccccc1
2. COc1ccc(O)c(C2=N[C@@H](C(=O)OCc3ccccc3)[C@@H](C)O2)c1
3. C[C@H]1OC(c2ccc(N=[N+]=[N-])cc2O)=N[C@H]1C(=O)OCc1ccccc1
4. C[C@@H]1OC(c2ccc3ccccc3c2O)=N[C@@H]1C(=O)OCc1ccccc1
5. C[C@@H]1OC(c2cc(Cl)c3ccccc3c2O)=N[C@@H]1C(=O)OCc1ccccc1

0.06 µg/mL
≤ 0.03 µg/mL
≤ 0.03 µg/mL
≤ 0.03 µg/mL
0.06 µg/mL

These measurements were taken from ChEMBL document CHEMBL4725493.
